Tested on: HOP-62 NSCLC
Test: NCI tumour cell line growth inhibition, 48 h
READOUT_KIND: GI50

Report GI50 from HOP-62 NSCLC testing of O=C1C(Cl)=C(Nc2cccc(O)c2)C(=O)N1c1ccc(Cl)cc1Cl
32.8 µM

Report GI50 from HOP-62 NSCLC testing of CC(=O)OC1CC(C)c2c(Cl)ncnc21 (stereo unspecified)
> 100 µM

Report GI50 from HOP-62 NSCLC testing of COc1cc([N+](=O)[O-])c(OC)cc1-c1nc2n(c1/C(N)=N/C(=N)N)CCS2
6.23 µM

Report GI50 from HOP-62 NSCLC testing of O=C(Nc1ccc(Cl)cc1F)c1cc(Cl)ccc1O
0.999 µM

Report GI50 from HOP-62 NSCLC testing of O=C(O)CP(=O)(c1ccccc1)c1ccccc1.O=C(O)CP(=O)(c1ccccc1)c1ccccc1.[Cd]
18.6 µM

Report GI50 from HOP-62 NSCLC testing of COc1cc(CCNc2nc3cc(N)cc(N)c3nc2-c2ccccc2)cc(OC)c1
2.95 µM

----------
System: OVCAR-4 ovarian
Assay: NCI tumour cell line growth inhibition, 48 h
READOUT_KIND: TGI

Guide cases for TGI, answers given:
- COc1cc(CCNc2nc3cc(N)cc(N)c3nc2-c2ccccc2)cc(OC)c1: 2.54 µM
- COc1cc(/C=C2/C(=O)N=C(NC(C)=O)N2C)ccc1OC(C)=O: > 100 µM
- COc1cc2c3c(c1OCc1ccccc1)NCCC3NCC2 (configuration not stated): > 100 µM

Give me measured TGI, please, for this compound: O=C(Nc1ccc(Cl)cc1F)c1cc(Cl)ccc1O
> 100 µM

Give me measured TGI, please, for this compound: COc1ccc(C(=O)C(CC2C(=O)CC(C)(C)C(C(=O)C(=O)Nc3c(C)cccc3C)C2=O)c2ccc(OC)cc2)cc1 (configuration not stated)
> 100 µM

Give me measured TGI, please, for this compound: COc1cc([N+](=O)[O-])c(OC)cc1-c1nc2n(c1/C(N)=N/C(=N)N)CCS2
> 100 µM

Give me measured TGI, please, for this compound: CC1=C2c3ccccc3N(S(=O)(=O)c3ccccc3)[C@H]2[C@H](C(=O)N2C3CC4CC[C@@]3(CS2(=O)=O)C4(C)C)CC1 (some centres not stated)
> 100 µM

Give me measured TGI, please, for this compound: CCCCC/C=C\C/C=C/CCCCCCCCNC(=O)Nc1ccc([N+](=O)[O-])cc1
> 100 µM

Give me measured TGI, please, for this compound: COc1cc2c(cc1OC)CN1CCc3ccccc3CC1C2 (configuration not stated)
98.2 µM

Give me measured TGI, please, for this compound: Nc1ncnc2c1c(C(=O)NO)cn2C1OC(CO)C(O)C1O (configuration not stated)
5.61 µM

Give me measured TGI, please, for this compound: CN1CCc2cc(O)c3cc2C1Cc1ccc(cc1)Oc1cc(ccc1O)CC1c2c(cc4c(c2O3)OCO4)CCN1C (configuration not stated)
88.6 µM

Give me measured TGI, please, for this compound: Cc1ccc2nc(CC(=O)c3ccc4ccccc4c3)c(=O)[nH]c2c1
> 100 µM

----------
Listed here: items and their measured TGI.
Test system: NCI-H522 lung
Assay: NCI tumour cell line growth inhibition, 48 h

- COc1ccc2c([nH]c3cc(O)c(C)cc32)c1CC=C(C)C: 17.3 µM
- Cc1n(-c2ccccc2)c2c([n+]1Cc1ccc([N+](=O)[O-])cc1)C(=O)c1ccccc1C2=O: 1.67 µM
- COC(=O)c1c2c(cc3c1CC1(C3)Cc3ccc4c(c3C1=O)CCC4)CCC2 (centres undefined): 6.19 µM
- CCOC(=O)NN(C(=O)OCC)C(C(=O)c1ccc(Cl)cc1)=C1NCCN1: > 100 µM
- CN/N=C(/CC(=O)c1sc(-n2nc(-c3ccccc3)cc2-c2ccccc2)nc1C)C(=O)Nc1ccc(Cl)c(Cl)c1: > 100 µM

Give me measured TGI, please, for this molecule: CCOc1ccc(N=Nc2c(-c3ccccc3)nn(C(=O)CC(=O)Nc3cccc(C)c3)c2-c2ccccc2)cc1
> 100 µM

Give me measured TGI, please, for this molecule: CC(C)NCCCCCNc1cc(O)cc2cccnc12
> 100 µM
